Molecular target: human B-Raf (Homo sapiens, UniProt P15056)
Construct: Flag; GST; made in house; host or cells: Sf9 insect cells (B-Raf); E. coli (MEK1-GST)
Sequence (P15056 whole entry): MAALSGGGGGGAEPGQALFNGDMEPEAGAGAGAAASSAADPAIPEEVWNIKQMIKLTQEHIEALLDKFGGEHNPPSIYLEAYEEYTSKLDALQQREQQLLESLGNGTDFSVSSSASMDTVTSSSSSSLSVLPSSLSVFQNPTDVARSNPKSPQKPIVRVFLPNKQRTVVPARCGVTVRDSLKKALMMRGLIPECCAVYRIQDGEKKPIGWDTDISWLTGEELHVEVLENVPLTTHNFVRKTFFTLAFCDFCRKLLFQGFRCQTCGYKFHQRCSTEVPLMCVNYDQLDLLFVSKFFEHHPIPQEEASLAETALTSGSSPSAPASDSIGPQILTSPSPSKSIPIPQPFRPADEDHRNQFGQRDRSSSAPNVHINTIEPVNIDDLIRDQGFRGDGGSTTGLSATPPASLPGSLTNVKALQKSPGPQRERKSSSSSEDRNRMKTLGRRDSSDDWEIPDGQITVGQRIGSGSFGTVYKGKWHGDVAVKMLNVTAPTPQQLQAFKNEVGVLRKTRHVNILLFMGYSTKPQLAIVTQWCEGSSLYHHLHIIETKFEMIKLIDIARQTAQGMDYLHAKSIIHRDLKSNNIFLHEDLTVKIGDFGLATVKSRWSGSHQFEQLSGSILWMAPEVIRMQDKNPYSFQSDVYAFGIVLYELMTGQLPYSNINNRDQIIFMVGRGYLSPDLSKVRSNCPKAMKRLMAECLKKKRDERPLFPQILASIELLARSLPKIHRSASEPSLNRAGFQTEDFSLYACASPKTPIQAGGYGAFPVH
Experiment: B-Raf Kinase to MEK1 ELISA
Assay type: biochemical
Conditions: read-out: % Inhib./10 uM
Class Condition met: inhibition at 10 µM at least 40%. Class Condition not met: inhibition at 10 µM below 40%.

CCOC(=O)c1cnn2c(-c3cccc(NC(=O)Nc4ccc(C(C)=O)cc4)c3)ccnc12 [Example 19] : Condition not met
O=C(Nc1cccc(-c2ccnc3c(-c4cn[nH]c4)cnn23)c1)c1cccc(C(F)(F)F)c1 [Example 275] : Condition met

Task item: Identify whether the reported inhibition at 10 µM of the following molecule is 40% or greater: CCOC(=O)c1cnn2c(-c3cccc(NC(=O)Cc4cccc(C)c4)c3)ccnc12 [Example 98]
Reply: Condition not met

Task item: Quick check: does O=Cc1cc(C=O)cc(-c2cnn3c(-c4cccc(NC(=O)c5cccc(C(F)(F)F)c5)c4)ccnc23)c1 [Example 310] have inhibition at 10 µM greater than or equal to 40%?
Reply: Condition not met

Task item: Given CN(C)C1CCN(c2cc3nccc(-c4cccc(NC(=O)c5cccc(C(F)(F)F)c5)c4)n3n2)C1 (centres unmarked) [Example 209] , state whether its inhibition at 10 µM is at least 40%.
Reply: Condition not met

Task item: # check: inhibition at 10 µM of CN(C)CCOC(=O)c1cnn2c(-c3cccc(NC(=O)c4cccc(C(F)(F)F)c4)c3)ccnc12 [Example 127] is greater than or equal to 40%
Reply: Condition met

Task item: Could you verify whether the entry O=C(Nc1cccc(-c2ccnc3c(-c4ccccn4)cnn23)c1)c1cccc(C(F)(F)F)c1 [Example 59] shows inhibition at 10 µM of no less than 40%?
Reply: Condition not met

Task item: Has CN1CCN(c2cc3nccc(-c4cccc(NC(=O)c5cccc(C(F)(F)F)c5)c4)n3n2)CC1 [Example 203] a recorded inhibition at 10 µM greater than or equal to 40%?
Reply: Condition not met

====

Target: human B-Raf (Homo sapiens)
Construct: Flag; GST; made in house; host or cells: Sf9 insect cells (B-Raf); E. coli (MEK1-GST)
Assay: B-Raf Kinase to MEK1 ELISA
Format: biochemical
Conditions: read-out: % Inhib./10 uM
Parameter Measured: inhibition at 10 µM (%)
Record the value in %, omitting the unit from your answer.

Example compounds with recorded inhibition at 10 µM:
Cc1cc(-c2cccc(NC(=O)c3cccc(C(F)(F)F)c3)c2)n2nc(-c3ccncc3)cc2n1 [Example 302] : 72
CN(CCCN)c1cc(-c2cc3nccc(-c4cccc(NC(=O)c5cccc(C(F)(F)F)c5)c4)n3n2)ccn1 [Example 269] : 78
CCOC(=O)c1cnn2c(-c3cccc(NC(=O)Nc4cc(C(F)(F)F)ccc4Cl)c3)ccnc12 [Example 37] : 76

Value of inhibition at 10 µM reported for the compound COc1ccc(-c2cc3nccc(-c4cccc(NC(=O)c5cccc(C(F)(F)F)c5)c4)n3n2)cc1 [Example 136] is 35

inhibition at 10 µM in this record for CC(C)(C)OC(=O)n1cc(-c2cnn3c(-c4cccc(NC(=O)c5cccc(C(F)(F)F)c5)c4)ccnc23)cn1 [Example 276] : 58

Record O=C(Nc1cccc(-c2ccnc3c(-c4cccc(CO)c4)cnn23)c1)c1cccc(C(F)(F)F)c1 [Example 286] . Reported inhibition at 10 µM: 77

The measured inhibition at 10 µM associated with CCOC(=O)c1cnn2c(-c3cccc(NC(=O)c4ccc(C(F)(F)F)cc4)c3)ccnc12 [Example 10] reads 27

// sample O=C(Nc1cccc(-c2ccnc3cc(N4CCOCC4)nn23)c1)Nc1ccc(F)c(C(F)(F)F)c1 [Example 202] , its inhibition at 10 µM was 96

Recorded result, CC(=O)c1cccc(-c2cnn3c(-c4cccc(NC(=O)c5cccc(C(F)(F)F)c5)c4)ccnc23)c1 [Example 299] , inhibition at 10 µM: 63

====

Target: human B-Raf (Homo sapiens)
Construct: Flag; GST; made in house; host or cells: Sf9 insect cells (B-Raf); E. coli (MEK1-GST)
Assay: B-Raf Kinase to MEK1 ELISA
Type: biochemical
Settings: read-out: % Inhib./10 uM
Parameter Measured: inhibition at 10 µM (%)
Reply numerically in %, unit not repeated.

O=C(Nc1cccc(-c2ccnc3c(-c4ccncc4)cnn23)c1)Nc1ccc(F)c(C(F)(F)F)c1 [Example 193] : 79

Measured inhibition at 10 µM for this entry CC(=O)c1ccccc1-c1cnn2c(-c3cccc(NC(=O)c4cccc(C(F)(F)F)c4)c3)ccnc12 [Example 298] on human B-Raf (Homo sapiens): 69

Item O=C(Nc1cccc(-c2ccnc3c(-c4nn[nH]n4)cnn23)c1)c1cccc(C(F)(F)F)c1 [Example 60] ; assay system human B-Raf (Homo sapiens); inhibition at 10 µM reported as 1

inhibition at 10 µM on human B-Raf (Homo sapiens) for COc1ccc(C(=O)Nc2cccc(-c3ccnc4c(Br)cnn34)c2)cc1C(F)(F)F [Example 162] is 75

====

Molecular target: human B-Raf (Homo sapiens, UniProt P15056)
Construct: Flag; GST; made in house; host or cells: Sf9 insect cells (B-Raf); E. coli (MEK1-GST)
Experiment: B-Raf Kinase to MEK1 ELISA
Format: biochemical
Settings: median; cpd concentrations from 10 μM to 30 nM in half log dilutions; read-out: Median IC50
IC50: recorded values

Below, 2 compounds whose answers are already recorded.
Cc1ccc(C(=O)Nc2cccc(-c3ccnc4cc(-c5ccccc5)nn34)c2)cc1C(F)(F)F : > 10 µM
CCOC(=O)c1cnn2c(-c3ccc(Cl)c(NC(=O)c4ccc(C)c(C(F)(F)F)c4)c3)ccnc12 : > 10 µM

Consider CCOC(=O)c1cnn2c(-c3ccc(OC)c(NC(=O)c4ccc(C)c(C(F)(F)F)c4)c3)ccnc12 . Its measured IC50 is > 10 µM

Record CCOC(=O)c1cnn2c(-c3cccc(NC(=O)Nc4ccc(Cl)cc4)c3)ccnc12 , field IC50: > 10 µM

Query CN(C)CC#Cc1cnn2c(-c3cccc(NC(=O)c4cccc(C(F)(F)F)c4)c3)ccnc12 yields IC50 of 1.73 µM

# IC50 (compound: O=C(Nc1cccc(-c2ccnc3c(C(=O)Nc4cccnc4)cnn23)c1)c1cccc(C(F)(F)F)c1 ) is > 10 µM

Sure, the documented IC50 for O=C(Nc1cccc(-c2ccnc3cc(-c4cccnc4)nn23)c1)c1cccc(C(F)(F)F)c1 is > 10 µM

Form field IC50, entry CCOC(=O)c1cnn2c(-c3cccc(NC(=O)c4cc(Cl)ccc4Br)c3)ccnc12 : > 10 µM

Sample Cc1ccc(C(=O)Nc2cccc(-c3ccnc4c(C#N)c(N5CCNCC5)nn34)c2)cc1C(F)(F)F ; IC50 observed: 8.4 µM

IC50 for O=C(Nc1cccc(-c2ccnc3cc(N4CCOCC4)nn23)c1)c1ccc(Cl)c(Cl)c1 is 1.9 µM

Kindly note the recorded IC50 for CCOC(=O)c1cnn2c(-c3cccc(NC(=O)c4ccc(C)c(C(F)(F)F)c4)c3)ccnc12 , which is 0.5 µM

Query O=C(Nc1cccc(-c2ccnc3c(-c4nn[nH]n4)cnn23)c1)c1cccc(C(F)(F)F)c1 yields IC50 of > 10 µM

For reference, reported IC50 for CCOC(=O)c1cnn2c(-c3cccc(NC(=O)Nc4ccc(Cl)c(C(F)(F)F)c4)c3)ccnc12 stands at 0.3 µM

IC50 reading for O=C(Nc1cccc(-c2ccnc3c(-c4cccnc4)cnn23)c1)c1ccc(Cl)c(C(F)(F)F)c1 : 1.01 µM

Query O=C(Nc1cccc(-c2ccnc3c(C(=O)O)cnn23)c1)c1cccc(C(F)(F)F)c1 yields IC50 of > 10 µM

Recorded result, CCOC(=O)c1cnn2c(-c3cccc(NC(=O)c4cc(F)c(Cl)cc4F)c3)ccnc12 , IC50: > 10 µM

IC50 for CN1CCCC1CCNC(=O)c1cnn2c(-c3cccc(NC(=O)c4cccc(C(F)(F)F)c4)c3)ccnc12 (centres unmarked) is > 10 µM

Looking up CCOC(=O)c1cnn2c(-c3cccc(NC(=O)c4ccc(Cl)s4)c3)ccnc12 , I found its IC50 recorded as > 10 µM

According to the records, this compound CNc1ccc(-c2cnn3c(-c4cccc(NC(=O)c5cccc(C(F)(F)F)c5)c4)ccnc23)cn1 displays IC50 of 0.078 µM

Form field IC50, entry O=C(Nc1cccc(-c2ccnc3cc(-c4ccnc(NCCN5CCCCC5)c4)nn23)c1)c1cccc(C(F)(F)F)c1 : 0.0958 µM

For reference, reported IC50 for CCOC(=O)c1cnn2c(-c3cccc(NC(=O)Nc4ccc(Cl)cc4Cl)c3)ccnc12 stands at > 10 µM

Entry CCOC(=O)c1cnn2c(-c3cccc(NC(=O)Nc4ccc(F)c(Cl)c4)c3)ccnc12 ; IC50 = 0.6 µM

Value of measured IC50 for the entry CCOC(=O)c1cnn2c(-c3cccc(NC(=O)Nc4ccc(C(C)C)cc4)c3)ccnc12 : > 10 µM
